Assignment: determine reported inhibition at 10 µM for the given compounds.
Test system: NIH3T3
assay: Inhibition of H-Ras-transformed NIH3T3 cell phenotype at 10 uM
Format: functional
condition.set: Mus musculus

Input: For CSCC[C@H](NC(=O)[C@@H]1Cc2ccccc2CN1C(=O)[C@@H](NC[C@H](N)CS)C(C)C)C(=O)O , what is its reported inhibition at 10 µM?
Output: > 80%

Input: Value lookup for inhibition at 10 µM; key = CSCC[C@H](NC(=O)[C@@H]1Cc2ccccc2CN1C(=O)[C@@H](NC[C@@H](N)CS)C(C)(C)C)C(=O)O
Output: 90%

Now examine the next entry.
Input: May I ask what inhibition at 10 µM has been recorded for CC(C)[C@H](NC[C@@H](N)CS)C(=O)N1Cc2ccccc2C[C@H]1C(=O)N[C@@H](CCC(N)=O)C(=O)O ?
Output: 90%

Source of measurements: ChEMBL document CHEMBL1129693
